System: Acinetobacter baumannii
Experiment summary: Antibiofilm activity against Acinetobacter baumannii incubated for 24 hrs followed by biofilm resuspension in PBS and measured after 24 hrs
Type: functional
Value type: MBEC50 (µM)
One number for each entry, in µM.

Lab note: each compound below needs its MBEC50 filled in.
1. CCCCCCCN1C(=N)N(CCCC[C@H]2CNC(=N)N2CCc2cccc(C(F)(F)F)c2)C[C@@H]1CCCC
2. CCCCCCCN1C(=N)N(CCCC[C@H]2CNC(=N)N2CCC23C[C@H]4C[C@@H](C2)C[C@@H](C3)C4)C[C@@H]1CCCC
3. CCCC[C@H]1CN(CCCC[C@H]2CNC(=N)N2CCc2cccc(C(F)(F)F)c2)C(=N)N1CCCCC1CCCCC1
4. CCCCCCCN1C(=N)N(CCCC[C@H]2CNC(=N)N2CCc2cccc(C(F)(F)F)c2)C[C@@H]1CC1CCCCC1
5. CCCCCCCN1C(=N)N(CCCC[C@H]2CNC(=N)N2CCCCC2CCCCC2)C[C@@H]1CC1CCCCC1

Response:
15
24
16
13
14
